- METHOD DESCRIPTION: yeast display, Sf9 membrane polyspecificity reagent, FACS + sequencing; frameworks hold sequencing errors
ENDPOINT: polyreactivity (PSR sort gate)

For orientation, consider the following solved cases.
# SEQUENCE, RESULT
rows = [
    ("QVQLVESGGGLVQAGGSLRLSCAASGSIFSYYAMAWYRHAPGKEREMVAAITSGGATTYYADSVKGRFTISRDNAKNTVYLQMNSLKQEDTAVYFCAAGYYVYFRWWELDYWGQGTQVTVSS", "low polyreactivity"),
    ("QVQLVESGGGLVQAGGSLRISCAASGIFPAYDMGWYRQAPGKERELVASISSDGSTYYADSVKGRFTISRDNAKNTVYLQMNSLKPEDTAVYYCNDVAIEPYYYVVYDIFDYWGQGTQVTVSS", "low polyreactivity"),
    ("QVQLVESGGGLVQAGGSLRLSCAASGYTLYQYAMGWYRPAPVKERELVAAISRRGGSTYYADSVKGRFTISRDNAKNTVYLLMNSLKPEDTAVYYCNNANLYRFWEMDYWGQGTQVSVSS", "high polyreactivity"),
    ("QVQLVESGRGLVQAGGSLRLTCAASGSTFTANDMGGSRPATGTERELFADISSGDGTNYADSVKGRFTISRDNAKNTVYLQMISLKPEDTAVYYCAKDVYNFRTTHSYFTGYDSWGHGTQVTVSS", "low polyreactivity"),
]

Switching to the query record.
# polyreactivity (PSR sort gate) of QDQLVESGGGLVQAGGSLRLSCAASGSIFVNYAMGWYRQAPGKERELVAAISRSGGRTYYADSVKGRFTISRDSAKITVYLQMNSLIPEDTAVYYCNVDPVLRTIEGDYWGQGTQVTVSS = high polyreactivity

---

- METHOD DESCRIPTION: yeast display, Sf9 membrane polyspecificity reagent, FACS + sequencing; frameworks hold sequencing errors
ENDPOINT: polyreactivity (PSR sort gate)

For orientation, consider the following solved cases.
# SEQUENCE, ENDPOINT, RESULT
data = [
    ("QVQLVESGGGLVQAGGSLRLSSAASGFIFVGNAMGWYRQAPGKERELVATISGADSTNYADSVKGRFTISRDNAKNTVYLQMNSLKPEDTAVYDCAKEGYSYFDGNYGPYRYDYWGQGTQVTVSS", "polyreactivity (PSR sort gate)", "low polyreactivity"),
    ("QVQLVESGGGLVQAGGSLRLSCAASGLIFWYYTMGWYRPAPGKERELVAAITIGGSTYYADSVKGRFTISRDNAKNTVYLQMNSLKPEDTAVYYCNTRRGRSQGGRYEYDYWGQGTQVTVSS", "polyreactivity (PSR sort gate)", "low polyreactivity"),
    ("QVQLVESGGGLVQAGGSLRLSCAASGRIFWGNGMGWYRQAPGKEREFVAAISKSGGSTYYADSVKGRFTISRDNAKNTVYLQMNSLKPEDTAVYYCAARAPYSYSGYGYWGQGTQVTVSS", "polyreactivity (PSR sort gate)", "high polyreactivity"),
    ("QVQLVESGGGLVQAGGSLRLSCAASGRIFYSYGMGWYRQAPGKERELVATISIGGSTNYADSVKGRFTISRDNAKNTVYLQMNSLKPEDTAVYYCAARGGTLYSTRSYGYWGQGTQVTVSS", "polyreactivity (PSR sort gate)", "high polyreactivity"),
]

Switching to the query record.
# polyreactivity (PSR sort gate) of QVQLVDSGGGLVQAGGTLRLSCAASGRTIYRNDMGWYRQAPGQERELVAAITSSGGTTYADSVKGRFTISRDNAKNTGYLQMNSLKPEDTAVYYCAAVYAYPNIYDYWGQGTQVTVSS = low polyreactivity
